Recorded Activity for the following molecules
# Test system: Mus musculus
# Protocol Notes: Toxicity in ICR mouse xenografted with mouse S180 cells assessed as effect on brain weight at 8.9 umol/kg
# Assay type: organism-based, CCRF S-180
# Cond: in vivo
Peptide text beside a SMILES is read from it. * marks the point of attachment. OBn = c1ccc(CO*)cc1

Task item: Name the reported Activity value associated with the molecule CC[C@H](C)[C@H](NC(=O)[C@H](Cc1c[nH]c2ccccc12)NC(=O)[C@@H](N)Cc1c[nH]c2ccccc12)C(=O)OCc1ccccc1 (H-Trp-Trp-Ile-OBn)
Reply: 0.28 g

Task item: What value of Activity has been reported for the following molecule? N[C@@H](Cc1c[nH]c2ccccc12)C(=O)N[C@@H](Cc1c[nH]c2ccccc12)C(=O)NCC(=O)OCc1ccccc1 (H-Trp-Trp-Gly-OBn)
Reply: 0.27 g

Task item: Which measured Activity value corresponds to CSCC[C@H](NC(=O)[C@H](Cc1c[nH]c2ccccc12)NC(=O)[C@@H](N)Cc1c[nH]c2ccccc12)C(=O)OCc1ccccc1 (H-Trp-Trp-Met-OBn) ?
Reply: 0.28 g
